Listing of entries alongside the reported TGI.
- System: IGROV1 ovarian
- Test name: NCI tumour cell line growth inhibition, 48 h

{"columns": ["Compound", "Assayed system", "Units", "Result comparator", "TGI"],
 "data": [
  ["Cc1cc2c(C(C)C)c(O)c(O)c(C=NCC3CCCN4CCCCC34)c2cc1-c1cc2c(C=NCC3CCCN4CCCCC34)c(O)c(O)c(C(C)C)c2cc1C (centres undefined)", "IGROV1 ovarian", "µM", "=", 21.6],
  ["CCOC(=O)C(=O)Nc1cccc(Cl)c1C", "IGROV1 ovarian", "µM", ">", 100],
  ["O=C(Cc1nc2cccnc2nc1/C=C(\\O)c1ccccc1)c1ccccc1", "IGROV1 ovarian", "µM", ">", 100],
  ["C[C@H](NS(=O)(=O)c1ccc(NC(=O)c2ccccc2)cc1)C(=O)O", "IGROV1 ovarian", "µM", ">", 100],
  ["CCCCCCCCCC1CC(=O)Oc2cccc(O)c21 (centres undefined)", "IGROV1 ovarian", "µM", "=", 55.2],
  ["COC(=O)c1ccc([C@H]2c3[nH]c4ccccc4c3C[C@H](C(=O)OC)N2C(=O)CCl)cc1", "IGROV1 ovarian", "µM", "=", 0.277],
  ["CC#C[C@@]1(O)CCCCC1O (some centres undefined)", "IGROV1 ovarian", "µM", ">", 100],
  ["Clc1ccc(C2c3ccccc3-c3nc4ccccc4n32)cc1 (centres undefined)", "IGROV1 ovarian", "µM", ">", 86.1],
  ["O=c1ccc2ccc(O)c3c4c(=O)ccc5ccc(O)c(c1c23)c54", "IGROV1 ovarian", "µM", "=", 3.64],
  ["C=C(C)C(=O)OC1C[C@H](COC(C)=O)C2CC=C(C)C2C2OC(=O)C(=C)[C@H]12 (some centres undefined)", "IGROV1 ovarian", "µM", "=", 25.5],
  ["Cc1cc(Br)ccc1NC1=CC(=O)C(=O)c2ccccc21", "IGROV1 ovarian", "µM", ">", 100],
  ["O=C1N=C(c2c(-c3[nH]c(=O)c4ccc(Br)cc4c3O)c(O)c3ccccc3c2O)C(=O)c2cc(Br)ccc21", "IGROV1 ovarian", "µM", "=", 1.41],
  ["COc1ccc(O)cc1C=O", "IGROV1 ovarian", "µM", ">", 100],
  ["N#Cc1c(-c2ccc(Cl)cc2)cc(-c2cc(O)ccc2O)nc1N", "IGROV1 ovarian", "µM", "=", 4.77],
  ["CO[C@@H]1[C@H](O)CC[C@]2(CO2)[C@H]1[C@@]1(C)O[C@@H]1CC=C(C)C", "IGROV1 ovarian", "µM", ">", 200],
  ["COc1cc(C2CC(C)(N3CCCC3)Oc3cc4c(cc32)OCO4)cc(OC)c1OC (centres undefined)", "IGROV1 ovarian", "µM", ">", 51.2],
  ["O=C1c2ccccc2C2(O)Nc3c(ccc4ccccc34)C12O (centres undefined)", "IGROV1 ovarian", "µM", ">", 100],
  ["C=CCCC(CCC=C)(C(=O)O)C(=O)O", "IGROV1 ovarian", "µM", ">", 100],
  ["N#CCCN1C/C(=C/c2ccccc2)C(=O)/C(=C/c2ccccc2)C1", "IGROV1 ovarian", "µM", "=", 12.7],
  ["CC(=O)CC1(O)C(=O)c2c(Br)sc(Br)c2C1=O", "IGROV1 ovarian", "µM", "=", 35.9],
  ["Cc1ccnc2[nH]c(-c3cccc4ccccc34)cc(=O)c12", "IGROV1 ovarian", "µM", "=", 50],
  ["O=C(O)[C@@H]1CCCN1Cc1cc2cc3c(cc2c2cc(OCc4ccccc4)ccc12)OCO3", "IGROV1 ovarian", "µM", "=", 62.6],
  ["COc1cc2c(cc1OCCCCOc1cc3nc(C)nc(Cl)c3cc1OC)N=C[C@@H]1CCCN1C2=O", "IGROV1 ovarian", "µM", "=", 4.6],
  ["C=C[C@H]1CN2CCc3c([nH]c4cc(O)ccc34)[C@@H]2C[C@@H]1C[C@H]1c2[nH]c3ccccc3c2CCN1C", "IGROV1 ovarian", "µM", "=", 3.39],
  ["NCCSCC(N)C(=O)O (centres undefined)", "IGROV1 ovarian", "µM", ">", 497],
  ["CC1=C2[C@H]3OC(=O)[C@@H](C)[C@@H]3CC[C@@]2(C)C=CC1=O", "IGROV1 ovarian", "µM", ">", 100],
  ["COc1ccc2oc(=O)cc(C3c4ccc([nH]4)C(c4cc(=O)oc5ccc(OC)cc45)c4ccc([nH]4)C(c4cc(=O)oc5ccc(OC)cc45)c4ccc([nH]4)C(c4cc(=O)oc5ccc(OC)cc45)c4ccc3[nH]4)c2c1 (centres undefined)", "IGROV1 ovarian", "µM", "=", 10.8],
  ["Nc1c(C(=O)Nc2ccccc2)sc2nc3c(cc12)C(O)CCC3 (centres undefined)", "IGROV1 ovarian", "µM", ">", 100],
  ["NC(=O)[C@@H](CCC(F)(F)F)N(Cc1ccc(-c2ncon2)cc1F)S(=O)(=O)c1ccc(Cl)cc1", "IGROV1 ovarian", "µM", ">", 100]
]}
